target: hERG (Kv11.1) (Homo sapiens, UniProt Q12809); construct: gene KCNH2; test: whole-cell patch clamp: hERG-HEK293 cells ([…]) and I Kr in hiPSC-CMs (IC50); assay type: cell-based
Sequence (Q12809 whole entry): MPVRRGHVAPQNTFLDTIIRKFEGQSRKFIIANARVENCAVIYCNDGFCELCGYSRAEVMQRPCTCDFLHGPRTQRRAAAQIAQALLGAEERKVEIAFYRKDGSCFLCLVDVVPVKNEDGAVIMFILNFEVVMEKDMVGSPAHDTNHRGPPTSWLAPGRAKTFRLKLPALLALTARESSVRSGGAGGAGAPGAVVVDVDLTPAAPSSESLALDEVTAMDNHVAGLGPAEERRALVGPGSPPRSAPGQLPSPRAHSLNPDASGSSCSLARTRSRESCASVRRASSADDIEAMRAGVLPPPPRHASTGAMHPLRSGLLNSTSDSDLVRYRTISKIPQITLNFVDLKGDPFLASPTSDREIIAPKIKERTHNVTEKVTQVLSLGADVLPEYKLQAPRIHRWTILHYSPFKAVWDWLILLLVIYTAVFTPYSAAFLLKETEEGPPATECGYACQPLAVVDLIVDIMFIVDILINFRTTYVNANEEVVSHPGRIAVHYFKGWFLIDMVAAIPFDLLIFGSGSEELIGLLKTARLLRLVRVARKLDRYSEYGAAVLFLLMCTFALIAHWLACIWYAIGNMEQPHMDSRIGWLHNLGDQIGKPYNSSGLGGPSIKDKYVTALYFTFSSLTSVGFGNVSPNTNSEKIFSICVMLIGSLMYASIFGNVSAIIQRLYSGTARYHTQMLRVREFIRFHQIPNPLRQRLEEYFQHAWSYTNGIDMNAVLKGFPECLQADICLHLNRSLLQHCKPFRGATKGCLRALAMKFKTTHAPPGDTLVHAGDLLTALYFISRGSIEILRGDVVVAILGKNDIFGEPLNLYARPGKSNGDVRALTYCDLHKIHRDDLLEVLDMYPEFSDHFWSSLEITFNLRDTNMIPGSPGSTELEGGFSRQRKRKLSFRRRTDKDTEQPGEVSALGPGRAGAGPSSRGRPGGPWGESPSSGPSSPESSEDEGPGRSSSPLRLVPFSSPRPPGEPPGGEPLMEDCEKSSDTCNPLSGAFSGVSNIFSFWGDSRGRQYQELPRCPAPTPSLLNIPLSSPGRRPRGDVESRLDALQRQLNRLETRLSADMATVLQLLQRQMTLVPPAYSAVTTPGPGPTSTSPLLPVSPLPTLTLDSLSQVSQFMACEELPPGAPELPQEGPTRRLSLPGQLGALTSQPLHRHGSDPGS
experimental.endpoint: IC50

- CC[C@@H]1CN2CCc3c([nH]c4cccc(OC)c34)[C@@H]2C[C@@H]1/C(=C\OC)C(=O)OC: 910 nM

====

biological target: hERG (Kv11.1) (Homo sapiens); construct: gene KCNH2; assay: whole-cell patch clamp of I Kr tail current in hiPSC-CMs; format: cell-based
experimental.endpoint: IC50

- C=C[C@H]1CN2CCc3c([nH]c4cccc(OC)c34)[C@@H]2C[C@@H]1/C(=C\OC)C(=O)OC [Paynantheine]: 2.47 µM
- CC[C@H]1CN2CCc3c([nH]c4cccc(OC)c34)[C@@H]2C[C@@H]1/C(=C\OC)C(=O)OC [Speciogynine]: 1.02 µM
- CC[C@@H]1CN2CCc3c([nH]c4cccc(OC)c34)[C@H]2C[C@@H]1/C(=C\OC)C(=O)OC [Speciociliatine]: 1.48 µM
